Conditions: in propylene glycol, 318.15 K
PARAMETER: solubility (mole fraction)
Lab note: jot down the number only; don't add units.

Q: Please give the documented solubility (mole fraction) of Nc1ncnc2nc[nH]c12
A: 0.0118

###

Conditions: in water, 278.15 K
PARAMETER: solubility (mole fraction)
Give the value as a plain number.

Q: Look up and report measured solubility (mole fraction) for this entry: Nc1ncnc2nc[nH]c12
A: 5.43e-05

###

Conditions: in NMP, 283.15 K
PARAMETER: solubility (mole fraction)

Q: Fill in solubility (mole fraction) for record Nc1ncnc2nc[nH]c12
A: 0.00971

###

Settings: in water, 293.15 K
PARAMETER: solubility (mole fraction)
Reply with the value as a number alone.

Q: Please report solubility (mole fraction) for the following compound: Nc1ncnc2nc[nH]c12
A: 0.000108
